Property: Liver; scope: individual compounds
- Experiment description: Rat biodistribution of Tc-99m complexes
- Experimental setup: 2 min p.i.
Number only, in % Injected dose/organ; omit the unit.

Field: example entries. Status: answers known.
C1OCC(CP(CCP(CC2COCO2)CC2COCO2)CC2COCO2)O1 (stereo not drawn) [Compound 21] = 9.83
CCC(CP(CCP(CC(CC)OC)CC(CC)OC)CC(CC)OC)OC (stereo not drawn) [Compound 12] = 25.2
CCOCCP(CCCP(CCOCC)CCOCC)CCOCC [Compound 34] = 29.7
CCOCC(COCC)CP(CCP(CC(COCC)COCC)CC(COCC)COCC)CC(COCC)COCC [Compound 18] = 35.1
CCOCCCP(CCOC)CCP(CCCOCC)CCOC (stereo not drawn) [Compound 30] = 7.69
COCCP(CCOC)CCP(CCOC)CCOC [Compound 2] = 5.90
FC(F)(F)COCCCP(CCCOCC(F)(F)F)CCP(CCCOCC(F)(F)F)CCCOCC(F)(F)F [Compound 10] = 35.2
CCOCCP(CCOCCF)CCP(CCOCC)CCOCCF (stereo not drawn) [Compound 32] = 10.8

## Task Please report the measured Liver for CCOCP(CCCP(COCC)COCC)COCC [Compound 33]
## Result 39.4

====

- Experiment description: Rat biodistribution of Tc-99m complexes
- Experimental setup: 60 min p.i.
Where Heart equals or exceeds 0.6 % Injected dose/organ, the correct label is rule met; where it does not, the label is rule not met.

Observe how each entry below is paired with its result.
CCOC(CCP(CCC(OCC)OCC)CCP(CCC(OCC)OCC)CCC(OCC)OCC)OCC = rule met
CCOCCP(CCOCC)CC(CP(CCOCC)CCOCC)OC = rule met
C1OCC(CP(CCP(CC2COCO2)CC2COCO2)CC2COCO2)O1 (stereo not shown) = rule not met

## Task Could you tell me if the measured Heart of `CCOCCCP(CCCOCC)CCP(CCCOCC)CCCOCC` reaches 0.6 % Injected dose/organ or more?
## Result rule met

## Task Could you tell me if the measured Heart of `CCOCCP(CCCP(CCOCC)CCOCC)CCOCC` reaches 0.6 % Injected dose/organ or more?
## Result rule not met

## Task Could you tell me if the measured Heart of COC(C)CP(CCP(CC(C)OC)CC(C)OC)CC(C)OC (stereo not shown) reaches 0.6 % Injected dose/organ or more?
## Result rule met

## Task Could you tell me if the measured Heart of CCOCCP(CCOCCF)CCP(CCOCC)CCOCCF (stereo not shown) reaches 0.6 % Injected dose/organ or more?
## Result rule met

Cited source: patent US5045302A
